Attribute: solubility kinetic
PROCEDURE DETAILS: Kinetic aqueous solubility of the compound
Type: physicochemical
RUN CONDITIONS: buffer; read-out: Kinetic_solubility
MEASURED ATTRIBUTE: solubility kinetic

>>> obs_value("COC(=O)c1cccc(NC(=O)C2=C(C)NC(Nc3nc4ccccc4o3)=NC2c2ccccc2Cl)n1 (centres undefined)")
"< 1 µg/mL"
>>> obs_value("CC1=C(C(=O)Nc2cc(C(=O)O)ccn2)C(c2ccc(-n3cccn3)cc2Cl)N=C(Nc2nc3ccc(F)cc3o2)N1 (centres undefined)")
"> 87 µg/mL"
>>> obs_value("CC1=C(C(=O)NCc2cnn(C)c2C)C(c2ccc(C)cc2Cl)N=C(Nc2nc3ccc(F)cc3o2)N1 (centres undefined)")
"< 1 µg/mL"
>>> obs_value("CC1=C(C(=O)Nc2nnc(-c3cccnc3)s2)C(c2ccccc2Cl)N=C(Nc2nc3ccccc3o2)N1 (centres undefined)")
"< 1 µg/mL"

---

PROCEDURE DETAILS: Inhibition of recombinant mouse GALK1 using ATP as substrate incubated for 1 hr and measured by Kinase-Glo assay
RUN CONDITIONS: read-out: IC50
Rule: measured IC50 below 10 µM gets yes (1); anything equal to or greater than 10 µM gets no (0).

>>> label_class("CC1=C(C(=O)Nc2nnc(-c3cccnc3)s2)C(c2ccccc2Cl)N=C(Nc2nc3ccc(F)cc3o2)N1 (configuration not stated)")
"no (0)"
>>> label_class("CCn1cc(CNC(=O)C2=C(C)NC(Nc3nc4cccc(N)c4o3)=NC2c2ccc(Cl)cc2Cl)cn1 (configuration not stated)")
"yes (1)"
>>> label_class("CC1=C(C(=O)Nc2nncs2)C(c2ccc(C)cc2Cl)N=C(Nc2nc3ccccc3o2)N1 (configuration not stated)")
"yes (1)"
>>> label_class("CC1=C(C(=O)NCc2cnn(C)c2)C(c2ccccc2Cl)N=C(Nc2nc3ccc(F)cc3o2)N1 (configuration not stated)")
"no (0)"
>>> label_class("CC1=C(C(=O)NCc2cnn(C)c2)C(c2ccc(C)cc2Cl)N=C(Nc2nc3cccc(N)c3o2)N1 (configuration not stated)")
"yes (1)"
>>> label_class("O=C1CC(C(=O)N2CCNCC2)CC2=C1C(c1ccccc1Cl)N=C(Nc1nc3ccccc3o1)N2 (configuration not stated)")
"yes (1)"
>>> label_class("CC1=C(C(=O)Nc2cc(C(=O)O)ccn2)C(c2ccccc2Cl)N=C(Nc2nc3ccccc3o2)N1 (racemic)")
"yes (1)"
>>> label_class("CC1=C(C(=O)Nc2cc(C(=O)O)ccn2)[C@H](c2ccc(C)cc2Cl)N=C(Nc2nc3cccc(N)c3o2)N1")
"yes (1)"
>>> label_class("CC1=C(C(=O)Nc2cc(C(=O)O)ccn2)[C@H](c2ccccc2Cl)N=C(Nc2nc3ccc(F)cc3o2)N1")
"yes (1)"
>>> label_class("COC(=O)Cc1cccc(NC(=O)C2=C(C)NC(Nc3nc4ccccc4o3)=NC2c2ccccc2Cl)c1 (configuration not stated)")
"no (0)"
>>> label_class("CC1=C(C(=O)NCc2cnn(Cc3ccccc3)c2)C(c2ccc(C)cc2Cl)N=C(Nc2nc3cccc(N)c3o2)N1 (configuration not stated)")
"yes (1)"
>>> label_class("CCOC(=O)c1nnc(NC(=O)C2=C(C)NC(Nc3nc4ccccc4o3)=NC2c2ccccc2Cl)s1 (configuration not stated)")
"no (0)"
>>> label_class("CC1=C(C(=O)Nc2cc(C(=O)O)ccn2)C(c2ccc(-c3cnc(C)nc3)cc2Cl)N=C(Nc2nc3ccc(F)cc3o2)N1 (configuration not stated)")
"yes (1)"
>>> label_class("CC1=C(C(=O)Nc2cc(C(=O)O)ccc2C)C(c2ccccc2Cl)N=C(Nc2nc3ccc(F)cc3o2)N1 (configuration not stated)")
"no (0)"
>>> label_class("CC1=C(C(=O)Nc2cc(C(=O)O)ccn2)[C@@H](c2ccccc2Cl)N=C(Nc2nc3ccccc3o2)N1")
"no (0)"
>>> label_class("CC1=C(C(=O)Nc2cc(CO)ccn2)C(c2ccccc2Cl)N=C(Nc2nc3ccccc3o2)N1 (configuration not stated)")
"yes (1)"
>>> label_class("CC1=C(C(=O)Nc2nnc(C)s2)C(c2ccccc2Cl)N=C(Nc2nc3ccccc3o2)N1 (configuration not stated)")
"no (0)"

---

PROCEDURE DETAILS: Stability of compound in rat microsomes assessed as half-life
Type: ADME, Microsome
MEASURED ATTRIBUTE: half-life

>>> obs_value("COC(=O)c1cc(NC(=O)C2=C(C)NC(Nc3nc4ccccc4o3)=NC2c2ccccc2Cl)ccn1 (stereo not drawn)")
"> 30 min"
>>> obs_value("CC1=C(C(=O)Nc2cc(C(=O)O)ccn2)C(c2cccc([N+](=O)[O-])c2Cl)N=C(Nc2nc3ccc(F)cc3o2)N1 (stereo not drawn)")
"> 30 min"
>>> obs_value("CC1=C(C(=O)Nc2cc(C(=O)O)ccn2)C(c2ccc(C)cc2Cl)N=C(Nc2nc3cnccc3o2)N1 (stereo not drawn)")
"> 30 min"
>>> obs_value("COP(=O)(OC)C1=C(C)NC(Nc2nc3ccccc3o2)=NC1c1ccccc1Cl (stereo not drawn)")
"5.35 min"
>>> obs_value("CC1=C(C(=O)Nc2cc(C(=O)O)ccn2)[C@@H](c2ccccc2Cl)N=C(Nc2nc3ccccc3o2)N1")
"> 30 min"
>>> obs_value("COC(=O)Cc1nnc(NC(=O)C2=C(C)NC(Nc3nc4ccccc4o3)=NC2c2ccccc2Cl)s1 (stereo not drawn)")
"8.09 min"
>>> obs_value("CC1=C(C(=O)NCc2cnn(C)c2)[C@@H](c2ccc(C)cc2Cl)N=C(Nc2nc3cccc(N)c3o2)N1")
"7.87 min"
>>> obs_value("CC1=C(C(=O)Nc2cc(C(=O)O)ccn2)[C@@H](c2ccccc2Cl)N=C(Nc2nc3ccc(F)cc3o2)N1")
"> 30 min"

---

Quick reference for IC50 among some compounds
PROCEDURE DETAILS: Inhibition of recombinant mouse GALK1 using ATP as substrate incubated for 1 hr and measured by Kinase-Glo assay
RUN CONDITIONS: read-out: IC50
MEASURED ATTRIBUTE: IC50 (µM)

>>> obs_value("CC1=C(C(=O)Nc2cc(C(=O)O)ccn2)C(c2ccc(C)cc2Cl)N=C(Nc2nc3cccc(N)c3o2)N1 (racemic)")
1.72
>>> obs_value("CC1=C(C(=O)Nc2nnc(-c3cccnc3)s2)C(c2ccccc2Cl)N=C(Nc2nc3ccccc3o2)N1 (stereo not drawn)")
9.68
>>> obs_value("CC1=C(C(=O)Nc2cc(C(=O)O)ccn2)C(c2ccc(C)cc2Cl)N=C(Nc2nc3ncccc3o2)N1 (stereo not drawn)")
19.3
>>> obs_value("CN(C)CCNC(=O)C1CC(=O)C2=C(C1)NC(Nc1nc3ccccc3o1)=NC2c1ccccc1Cl (stereo not drawn)")
12.2
>>> obs_value("COc1ccc([C@H]2N=C(Nc3nc4ccc(F)cc4o3)NC(C)=C2C(=O)Nc2cc(C(=O)O)ccn2)c(Cl)c1")
19.3
>>> obs_value("COC(=O)c1ccnc(NC(=O)C2=C(C)NC(Nc3nc4cccc(N)c4o3)=NC2c2ccc(C)cc2Cl)c1 (stereo not drawn)")
7.08
>>> obs_value("CC1=C(C(=O)NCc2cn(C)cn2)C(c2ccccc2Cl)N=C(Nc2nc3ccc(F)cc3o2)N1 (stereo not drawn)")
19.3
>>> obs_value("CC1=C(C(=O)Nc2cc(C(=O)O)ccn2)C(c2ccccc2Cl)N=C(Nc2nc3c(Cl)cccc3o2)N1 (stereo not drawn)")
13.7

---

PROCEDURE DETAILS: Stability of compound in rat microsomes assessed as half-life
Assay type: ADME, Microsome
Attribute: half-life
MEASURED ATTRIBUTE: half-life

>>> obs_value("CC1=C(C(=O)Nc2ccc(C(=O)N3CCOCC3)cc2)C(c2ccccc2Cl)N=C(Nc2nc3ccccc3o2)N1 (stereo not drawn)")
"> 30 min"
>>> obs_value("CC1=C(C(=O)Nc2nnc(-c3cccnc3)s2)C(c2ccccc2Cl)N=C(Nc2nc3cc(C)ccc3o2)N1 (stereo not drawn)")
"> 30 min"
>>> obs_value("CC1=C(C(=O)NCc2ccc(F)cc2)C(c2ccccc2Cl)N=C(Nc2nc3ccccc3o2)N1 (stereo not drawn)")
"11.3 min"
>>> obs_value("COc1ccc(C(=O)O)cc1NC(=O)C1=C(C)NC(Nc2nc3ccc(F)cc3o2)=NC1c1ccccc1Cl (stereo not drawn)")
"> 30 min"
>>> obs_value("CC1=C(C(=O)Nc2nncs2)C(c2ccccc2Br)N=C(Nc2nc3ccccc3o2)N1 (stereo not drawn)")
"> 30 min"
>>> obs_value("CCn1cc(CNC(=O)C2=C(C)NC(Nc3nc4cccc(N)c4o3)=NC2c2ccc(Cl)cc2Cl)cn1 (stereo not drawn)")
"14.1 min"
>>> obs_value("CC1=C(C(=O)Nc2cc(C(=O)O)ccn2)C(c2ccccc2Cl)N=C(Nc2nc3cccc([N+](=O)[O-])c3o2)N1 (stereo not drawn)")
"> 30 min"
>>> obs_value("CCOC(=O)N1C(Nc2nc3ccccc3o2)=NC(c2ccccc2Cl)C(C(=O)Nc2cc(C(=O)O)ccn2)=C1C (stereo not drawn)")
"> 30 min"

Source: ChEMBL document CHEMBL5050861
